System: LXFL 529 NSCLC
Assay: NCI tumour cell line growth inhibition, 48 h
Recorded metric: TGI

Consider the reported TGI for these compounds:
Record N#CCCN(CCC#N)c1ccc(/C=C(/NC(=O)Nc2ccccc2Cl)NC(=O)c2cc([N+](=O)[O-])ccc2Cl)cc1 , field TGI: > 100 µM

Record C/C(=N/N)c1sc(-c2nc(C)c(/C(C)=N\N)s2)nc1C , field TGI: > 100 µM

Record O=C(NCc1ccccc1)C1C(=O)C(=O)N(Cc2ccccc2)C1=O (stereo not given) , field TGI: > 100 µM

Record CSc1cc(C(C)(C)C)ccc1C(O)c1ccc(C(C)(C)C)cc1SC , field TGI: 32.5 µM

Next:
Record C[Si](C)(C)/C=C/CN1C(=O)CCC1=O , field TGI: > 100 µM

---

Kindly state GI50 for each of the entries shown.
Test system: NCI-H460 lung
Test: NCI tumour cell line growth inhibition, 48 h

Consider the reported GI50 for these compounds:
Record C=C1C(=O)O[C@H]2[C@H]1CC/C(COC(=O)/C=C\C(=O)NCc1ccc(Cn3c(=O)sn(-c4ccc(Cl)cc4)c3=O)cc1)=C\CC[C@@]1(C)O[C@@H]21 , field GI50: 811 nM

Record COc1ccc2nc3ccccc3c(NCc3ccccc3)c2c1 , field GI50: 2190 nM

Record CCC(C(=O)[C@@H](C)[C@@H](O)[C@H](C)[C@@H]1O[C@@H]([C@@H](CC)C(=O)ONC(=O)c2ccccc2)CC[C@@H]1C)[C@H]1O[C@]2(C=CC(=O)[C@]3(CC[C@@](C)([C@H]4CC[C@](O)(CC)[C@H](C)O4)O3)O2)[C@H](C)C[C@@H]1C (stereo not given in full) , field GI50: 331 nM

Record OCC1OC(n2cnc3c(NCc4ccccc4O)ncnc32)C(O)C1O (stereo not given) , field GI50: 8570 nM

Record Cc1ccc(NC2=CC(=O)C(=O)c3ccccc32)cc1 , field GI50: 1700 nM

Record COc1ccc(-c2nnc(Nc3nc(O)c(C4=c5cc(Br)ccc5=NC4=O)s3)o2)cc1 , field GI50: 22600 nM

Record C/C=C(\C)C(=O)O[C@@H]1C=CC(=O)O[C@H]1CNC(=O)[C@H](C)O , field GI50: 22200 nM

Record Nc1no[n+]([O-])c1-c1nnc2c(n1)-c1ccccc1C2=O , field GI50: 3380 nM

Batch request: GI50 for each of the following compounds.
1. C[C@@H](Oc1cc(-c2cnn(C3CCNCC3)c2)cnc1N)c1c(Cl)cc(F)cc1Cl
2. C(=C\c1ccc(OCC2CO2)cc1)/C1=NCOC1 (stereo not given)

Ans:
902 nM
19900 nM

---

System: MDA-MB-231 breast
Assay: NCI tumour cell line growth inhibition, 48 h
Kindly state log10 of TGI for each of the entries shown.
In our notation, the value equals log10 of TGI in µM.

Consider the reported log10 of TGI for these compounds:
Case C/C=C(\C)C(=O)O[C@@H]1C=CC(=O)O[C@H]1CNC(=O)[C@H](C)O , MDA-MB-231 breast, log10 of TGI recorded as 1.66

Case COC(=O)c1cc2c(cc1C(=O)OC)[C@@]1(C)CCCC(C)(C)C1CC2 (some centres undefined) , MDA-MB-231 breast, log10 of TGI recorded as 1.62

Case CCOC(=O)c1csc(-c2cn(C)c3c2C(=O)C(OC)=CC3=O)n1 , MDA-MB-231 breast, log10 of TGI recorded as 1.76

Case CCC(C(=O)[C@@H](C)[C@@H](O)[C@H](C)[C@@H]1O[C@@H]([C@@H](CC)C(=O)ONC(=O)c2ccccc2)CC[C@@H]1C)[C@H]1O[C@]2(C=CC(=O)[C@]3(CC[C@@](C)([C@H]4CC[C@](O)(CC)[C@H](C)O4)O3)O2)[C@H](C)C[C@@H]1C (some centres undefined) , MDA-MB-231 breast, log10 of TGI recorded as 0.21

Next:
Case O=C(CCl)Nc1ccc(Cc2ccc(NC(=O)CCl)cc2)cc1 , MDA-MB-231 breast, log10 of TGI recorded as 0.70
